# Tested system: CSF1R phosphorylation in THP-1 cells (Homo sapiens (Human), UniProt P07333)
# Sequence (P07333 20-972): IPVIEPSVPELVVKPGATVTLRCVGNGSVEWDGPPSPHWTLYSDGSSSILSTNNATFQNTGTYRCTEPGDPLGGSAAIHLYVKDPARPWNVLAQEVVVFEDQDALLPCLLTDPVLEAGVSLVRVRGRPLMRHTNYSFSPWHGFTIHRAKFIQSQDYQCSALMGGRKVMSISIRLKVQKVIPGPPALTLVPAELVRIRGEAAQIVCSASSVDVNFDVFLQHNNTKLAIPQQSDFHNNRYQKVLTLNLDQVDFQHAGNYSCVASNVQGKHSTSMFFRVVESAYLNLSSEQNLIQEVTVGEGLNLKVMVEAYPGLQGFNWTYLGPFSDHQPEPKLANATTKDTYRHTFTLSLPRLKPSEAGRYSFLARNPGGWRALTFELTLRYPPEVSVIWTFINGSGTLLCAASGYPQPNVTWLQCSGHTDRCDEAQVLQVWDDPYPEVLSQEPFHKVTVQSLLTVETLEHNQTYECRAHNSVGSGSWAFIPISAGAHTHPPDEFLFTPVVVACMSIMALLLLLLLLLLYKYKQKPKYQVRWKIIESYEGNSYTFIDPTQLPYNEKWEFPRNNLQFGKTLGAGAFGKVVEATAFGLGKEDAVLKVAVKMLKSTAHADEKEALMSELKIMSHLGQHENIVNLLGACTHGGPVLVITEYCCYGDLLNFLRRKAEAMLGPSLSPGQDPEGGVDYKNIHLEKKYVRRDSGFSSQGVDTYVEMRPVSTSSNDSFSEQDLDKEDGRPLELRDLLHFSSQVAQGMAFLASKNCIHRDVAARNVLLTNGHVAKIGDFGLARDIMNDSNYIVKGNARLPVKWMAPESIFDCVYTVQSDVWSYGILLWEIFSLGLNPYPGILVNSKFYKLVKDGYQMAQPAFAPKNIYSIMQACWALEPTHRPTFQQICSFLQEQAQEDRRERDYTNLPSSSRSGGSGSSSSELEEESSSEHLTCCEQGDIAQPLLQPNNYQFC
# Experiment summary: Detection of CSF1R phosphorylation activity at cell level (THP-1, M-CSF stimulated, ELISA)
# Experimental conditions: p-CSF1R ELISA, compound 60 min, 300 ng/mL M-CSF 1 min
pIC50: −log10 of the molar value.
Below is a list of entries, each paired with its recorded pIC50 value.
Value kind: pIC50

Cc1ncc(C(=O)Nc2ccc(Oc3ccnc(-c4cnn(CCO)c4)c3)cn2)c(=O)n1C    7.77
CC(C)n1cccc(C(=O)Nc2ccc(Oc3ccnc(-c4ccnn4C)c3)cn2)c1=O    6.69
CC(C)n1cccc(C(=O)Nc2ccc(Oc3ccnc(-c4nccn4C)c3)cn2)c1=O    6.88
Cc1ncc(C(=O)Nc2ccc(Oc3ccnc(-c4ccn(C)c4)c3)cn2)c(=O)n1C    8.10
Cn1cc(-c2cc(Oc3ccc(NC(=O)c4cccn(C5CCC5)c4=O)nc3)ccn2)cn1    7.80
Cn1ccc(Nc2cc(Oc3ccc(NC(=O)c4cccn(C)c4=O)nc3)ccn2)n1    8.05
CC(C)n1cccc(C(=O)Nc2ccc(Oc3ccnc(-c4cn(C)nn4)c3)cn2)c1=O    8.15
Cc1ncc(C(=O)Nc2ccc(Oc3ccnc(-c4ccccn4)c3)cn2)c(=O)n1C    7.62
Cc1ncc(C(=O)Nc2ccc(Oc3ccnc(Nc4ccn(C)n4)c3)cn2)c(=O)n1C    8.22
COc1cc(Oc2ccnc(-c3cnn(C)c3)c2)ccc1NC(=O)c1cccn(C(C)C)c1=O    7.22
Cn1cc(-c2cc(Oc3ccc(NC(=O)c4cccn(C5CC5)c4=O)nc3)ccn2)cn1    7.85
Cn1cc(Nc2cc(Oc3ccc(NC(=O)c4cnc5n(c4=O)CCC5)nc3)ccn2)cn1    8.52
Cc1ccc(-c2cc(Oc3ccc(NC(=O)c4cccn(C)c4=O)nc3)ccn2)cn1    7.66
Cc1ncc(C(=O)Nc2ncc(Oc3ccnc(-c4cnn(C)c4)c3)cc2F)c(=O)n1C    7.42
Cc1cc(C(=O)Nc2ccc(Oc3ccnc(-c4ccn(C)c4)c3)cn2)c(=O)n(C)c1    7.72
Cc1cnc(Nc2cc(Oc3ccc(NC(=O)c4cnc(C)n(C)c4=O)nc3)ccn2)s1    7.70

---

# System: Ba/F3^BCR-FMS-11 cells
# Experiment summary: Cell proliferation experiment (Ba/F3^BCR-FMS-11, cckit-8)
# Type: cell-based, mouse
# Experimental conditions: Mus musculus, Ba/F3^BCR-FMS-11 cell proliferation, 72 hours
IC50 listing for selected compounds.
Value kind: IC50 (nM)

[2H]C([2H])([2H])n1c(C)ncc(C(=O)Nc2ccc(Oc3ccnc(-c4cnn(C)c4)c3)cn2)c1=O    2
[2H]C([2H])([2H])n1cc(-c2cc(Oc3ccc(NC(=O)c4cnc(C)n(C)c4=O)nc3)ccn2)cn1    2
CN(C)CCn1cccc(C(=O)Nc2ccc(Oc3ccnc(-c4cnn(C)c4)c3)cn2)c1=O    143
CN(C)c1ccc(C(=O)Nc2ccc(Oc3ccnc(-c4cnn(C)c4)c3)cn2)c(=O)n1C    11

---

# Tested system: CSF1R phosphorylation in THP-1 cells (Homo sapiens (Human))
# Experiment summary: Detection of CSF1R phosphorylation activity at cell level (THP-1, M-CSF stimulated, ELISA)
# Experimental conditions: p-CSF1R ELISA, compound 60 min, 300 ng/mL M-CSF 1 min
Value kind: IC50

Cn1cc(-c2cc(Oc3ccc(NC(=O)c4ccc(C(F)(F)F)n(C)c4=O)nc3)ccn2)cn1    10 nM
Cc1c(F)cc(C(=O)Nc2ccc(Oc3ccnc(Nc4cnn(C)c4)c3)cn2)c(=O)n1C    14 nM
Cn1cc(-c2cc(Oc3ccc(NC(=O)c4cnc5n(c4=O)CCC5)nc3)ccn2)cn1    6 nM
Cn1cnc(-c2cc(Oc3cnc(NC(=O)c4cccn(C)c4=O)c(F)c3)ccn2)c1    43 nM
Cc1ncc(C(=O)Nc2ccc(Oc3ccnc(-c4cn[nH]c4)c3)cn2)c(=O)n1C    7 nM
Cc1ncc(C(=O)Nc2ccc(Oc3ccnc(Nc4ccnn4C)c3)cn2)c(=O)n1C    6 nM
CCn1cccc(C(=O)Nc2ccc(Oc3ccnc(-c4cnn(C)c4)c3)cn2)c1=O    7 nM
CC(C)n1cccc(C(=O)Nc2ncc(Oc3ccnc(-c4cnn(C)c4)c3)cc2C#N)c1=O    38 nM

---

# Tested system: CSF1R phosphorylation in THP-1 cells (Homo sapiens (Human), UniProt P07333)
# Experiment summary: Detection of CSF1R phosphorylation activity at cell level (THP-1, M-CSF stimulated, ELISA)
# Experimental conditions: p-CSF1R ELISA, compound 60 min, 300 ng/mL M-CSF 1 min
# Description: Detection of CSF1R Phosphorylation Activity at Cell Level THP-1 (ATCC), human acute monocytic leukemia cells. The cells were cultured in an RPMI 1640 medium containing 10% FBS. 2. Reagents and instruments […] 100 μL/well of the p-CSF1R capture antibody diluted to 0.8 μg/mL with PBS was added to the ELISA plate, and the plate was coated on a shaker at room temperature overnight. […] The optical density signal (450/570 nm) of each well was detected in Labsystems Multiskan K3 or Envision. […]
This section presents compounds with their documented IC50 values.
Value kind: IC50 (nM)

Cn1cc(-c2cc(Oc3ccc(NC(=O)c4ccc5n(c4=O)CCC5)nc3)ccn2)cn1    18
Cn1cnc(-c2cc(Oc3ccc(NC(=O)c4cccn(C)c4=O)nc3)ccn2)c1    17
Cc1ncc(C(=O)Nc2ccc(Oc3ccnc(-c4cnn(C(C)C)c4)c3)cn2)c(=O)n1C    12
Cn1cc(Nc2cc(Oc3ccc(NC(=O)c4cccn(C)c4=O)nc3)ccn2)cn1 [Compound 67]    9

---

# Tested system: Recombinant human CSF1R kinase (Homo sapiens (Human))
# Experimental conditions: Z-LYTE Tyr 1 peptide substrate
Value kind: IC50 (nM)

Cc1cc(C(=O)Nc2ccc(Oc3ccnc(-c4cnn(C)c4)c3)cn2)c(=O)n(C)c1    19
CC(C)n1nccc(C(=O)Nc2ccc(Oc3ccnc(-c4cnn(C)c4)c3)cn2)c1=O    8
Cc1cc(C(=O)Nc2ccc(Oc3ccnc(-c4ccn(C)c4)c3)cn2)c(=O)n(C)c1    16
Cc1ncc(C(=O)Nc2ccc(Oc3ccnc(-c4nccs4)c3)cn2)c(=O)n1C    467
Cc1ncc(C(=O)Nc2ccc(Oc3ccnc(-c4cccnc4)c3)cn2)c(=O)n1C    62
Cn1cc(-c2cc(Oc3ccc(NC(=O)c4cccn(C(F)F)c4=O)nc3)ccn2)cn1    45
Cc1ccc(C(=O)Nc2ccc(Oc3ccnc(-c4cnn(C)c4)c3)cn2)c(=O)n1C    3
CC(C)n1cccc(C(=O)Nc2ccc(Oc3ccnc(-c4cnn(C)c4)n3)cn2)c1=O    7

---

# Tested system: Recombinant human CSF1R kinase (Homo sapiens (Human), UniProt P07333)
# Experimental conditions: Z-LYTE Tyr 1 peptide substrate
Value kind: IC50

Cn1cc(Nc2cc(Oc3ccc(NC(=O)c4cnc5n(c4=O)CCC5)nc3)ccn2)cn1    9 nM
Cn1cc(-c2cc(Oc3ccc(NC(=O)c4cccn(C5CC5)c4=O)nc3)ccn2)cn1    5 nM
CC(C)n1cccc(C(=O)Nc2ccc(Oc3ccnc(-c4ccn(C)n4)c3)cn2)c1=O    10 nM
CC(C)n1cccc(C(=O)Nc2ccc(Oc3ccnc(-c4ccn(C)c4)c3)cn2)c1=O    7 nM
Cn1cc(-c2cc(Oc3ccc(NC(=O)c4ccc(N)n(C)c4=O)nc3)ccn2)cn1    9 nM
Cc1ccc(-c2cc(Oc3ccc(NC(=O)c4cnc(C)n(C)c4=O)nc3)ccn2)o1    55 nM
Cn1cc(-c2cc(Oc3ccc(NC(=O)c4cc5ccccc5n(C)c4=O)nc3)ccn2)cn1    14 nM
Cc1ncc(C(=O)Nc2ccc(Oc3ccnc(Nc4cnn(C)c4)c3)cn2)c(=O)n1C    9 nM

---

# Tested system: CSF1R phosphorylation in THP-1 cells (Homo sapiens (Human), UniProt P07333)
# Experiment summary: Detection of CSF1R phosphorylation activity at cell level (THP-1, M-CSF stimulated, ELISA)
# Experimental conditions: p-CSF1R ELISA, compound 60 min, 300 ng/mL M-CSF 1 min
Rule: IC50 below 20 nM gives true (1), anything at or above gives false (0).

Cn1cc(-c2cc(Oc3ccc(NC(=O)c4cc5ccccc5n(C)c4=O)nc3)ccn2)cn1 [Compound 72]    true (1)
Cc1ccc(-c2cc(Oc3ccc(NC(=O)c4cccn(C(C)C)c4=O)nc3)ccn2)cn1 [Compound 101]    false (0)
Cn1cc(-c2cc(Oc3ccc(NC(=O)c4nccn(C)c4=O)nc3)ccn2)cn1 [Compound 58]    false (0)
Cc1ncc(C(=O)Nc2ccc(Oc3ccnc(-c4cnn(C)c4)c3)cn2)c(=O)n1C [Compound 8]    true (1)
CC(C)n1cccc(C(=O)Nc2ncc(Oc3ccnc(-c4cnn(C)c4)c3)cc2F)c1=O [Compound 108]    false (0)
CC(C)n1cc(Cl)cc(C(=O)Nc2ccc(Oc3ccnc(-c4cnn(C)c4)c3)cn2)c1=O [Compound 57]    false (0)
Cn1cc(-c2cc(Oc3ccc(NC(=O)c4cccn(C(F)F)c4=O)nc3)ccn2)cn1 [Compound 61]    false (0)
O=C(Nc1ccc(Oc2ccnc(Nc3ccn(C(F)F)n3)c2)cn1)c1cnc2n(c1=O)CCC2 [Compound 69]    true (1)
